# experiment.notes: total protein half-life in vivo (active degradation + dilution); higher = more stable protein
# test.conditions: wild type E. coli NCM3722; growth: N-lim chemostat; doubling time 6 h
total protein half-life in vivo values, listed per item

biopolymer.sequence	total protein half-life in vivo
MIKLSNITKVFHQGTRTIQALNNVSLHVPAGQIYGVIGASGAGKSTLIRCVNLLERPTEGSVLVDGQELTTLSESELTKARRQIGMIFQHFNLLSSRTVFGNVALPLELDNTPKDEVKRRVTELLSLVGLGDKHDSYPSNLSGGQKQRVAIARALASNPKVLLCDEATSALDPATTRSILELLKDINRRLGLTILLITHEMDVVKRICDCVAVISNGELIEQDTVSEVFSHPKTPLAQKFIQSTLHLDIPEDYQERLQAEPFTDCVPMLRLEFTGQSVDAPLLSETARRFNVNNNIISAQMDYAGGVKFGIMLTEMHGTQQDTQAAIAWLQEHHVKVEVLGYV	5.85 h
MEKLRVGIVFGGKSAEHEVSLQSAKNIVDAIDKSRFDVVLLGIDKQGQWHVSDASNYLLNADDPAHIALRPSATSLAQVPGKHEHQLIDAQNGQPLPTVDVIFPIVHGTLGEDGSLQGMLRVANLPFVGSDVLASAACMDKDVTKRLLRDAGLNIAPFITLTRANRHNISFAEVESKLGLPLFVKPANQGSSVGVSKVTSEEQYAIAVDLAFEFDHKVIVEQGIKGREIECAVLGNDNPQASTCGEIVLTSDFYAYDTKYIDEDGAKVVVPAAIAPEINDKIRAIAVQAYQTLGCAGMARVDVFLTPENEVVINEINTLPGFTNISMYPKLWQASGLGYTDLITRLIELALERHAADNALKTTM [P0A6J8]	4.89 h
